FYI, the data here is from PubChem BioAssay AID602438.

Target: Neuropilin-1 (Homo sapiens) (UniProt O14786)
Sequence (O14786 whole entry, looked up): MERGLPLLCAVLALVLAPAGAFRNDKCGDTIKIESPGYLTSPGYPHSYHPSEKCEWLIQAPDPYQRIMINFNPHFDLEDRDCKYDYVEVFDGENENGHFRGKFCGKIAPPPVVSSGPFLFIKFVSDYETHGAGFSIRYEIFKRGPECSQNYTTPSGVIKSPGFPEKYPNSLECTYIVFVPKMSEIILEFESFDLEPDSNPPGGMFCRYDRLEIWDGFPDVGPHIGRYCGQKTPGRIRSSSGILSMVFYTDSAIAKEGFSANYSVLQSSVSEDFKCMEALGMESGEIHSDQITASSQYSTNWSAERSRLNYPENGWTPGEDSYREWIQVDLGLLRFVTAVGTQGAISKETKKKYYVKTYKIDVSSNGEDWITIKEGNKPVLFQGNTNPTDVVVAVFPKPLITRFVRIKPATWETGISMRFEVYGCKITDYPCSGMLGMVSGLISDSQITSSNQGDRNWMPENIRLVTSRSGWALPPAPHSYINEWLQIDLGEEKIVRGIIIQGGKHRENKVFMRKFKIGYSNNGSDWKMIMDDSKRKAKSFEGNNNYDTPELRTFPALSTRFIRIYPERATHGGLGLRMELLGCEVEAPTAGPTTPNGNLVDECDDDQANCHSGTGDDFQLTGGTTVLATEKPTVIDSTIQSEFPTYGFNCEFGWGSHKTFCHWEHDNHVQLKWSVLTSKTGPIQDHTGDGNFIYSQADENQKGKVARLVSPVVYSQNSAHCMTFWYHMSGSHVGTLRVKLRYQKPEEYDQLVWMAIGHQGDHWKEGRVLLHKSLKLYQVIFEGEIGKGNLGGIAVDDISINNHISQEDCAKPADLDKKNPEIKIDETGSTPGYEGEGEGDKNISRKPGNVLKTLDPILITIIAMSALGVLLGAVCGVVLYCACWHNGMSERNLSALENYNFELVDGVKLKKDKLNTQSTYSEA
Assay: NRP-1/CendR peptide interaction modulators – biochemical, fluorescence polarization, uHTS, primary screen (AID 602438)
Settings: FAM-RPARPAR peptide binding to NRP-1, fluorescence polarization; at 25 µM; stronger effect = higher value
Screen size: about 360,000 compounds; about 3,100 (0.86%) were called active. For the sample, actives were picked, then their nearest neighbours and some compounds at random.
measurement_name: inhibition (%)

compound	recorded_number
C[C@H]1CN([C@@H](C)CO)C(=O)Cc2cc(NC(=O)Cc3ccccc3)ccc2O[C@H]1CN(C)S(=O)(=O)c1cccs1	0.6
NNC(=O)C1CCCn2c1nc1sc3c(c1c2=O)CCCC3 (stereo not given)	1.2
CC1(C(=O)NCc2ccc3c(c2)OCO3)CCN1C(=O)Cc1cccs1 (stereo not given)	3
CCNC(=S)N(CCc1c(C)[nH]c2ccc(C)cc12)Cc1ccco1	-23.4
C#CC(C)(C)NC(=O)c1cnc(-c2ccccc2)nc1-c1ccccc1	-0.8
O=C(CCNC(=O)c1ccccc1Cl)NN=Cc1ccco1	10.2
CC(C)(C)S(=O)(=O)c1ccccc1-c1noc(-c2ccccc2)c1C(N)=O	42.7
O=C(N/N=C/c1ccco1)c1csc2c1CCCC2	26.9
Cc1onc(-c2ccccc2)c1C(=O)N1CCN(S(=O)(=O)c2ccccc2C(F)(F)F)CC1	-195
C=C(C)CSc1nc(N)c2c3c(sc2n1)CCC3	-0.3

###

Target: Neuropilin-1 (Homo sapiens)
Assay: NRP-1/CendR peptide interaction modulators – biochemical, fluorescence polarization, uHTS, primary screen (AID 602438)
Conditions: FAM-RPARPAR peptide binding to NRP-1, fluorescence polarization; at 25 µM; stronger effect = higher value
Out of some 360,000 compounds screened, about 3,100 (0.86%) were called active. What follows is part of a selection rich in actives, with near analogues and random picks from the rest.
measurement_name: inhibition (%)

molecule	target_or_system	result_unit	recorded_number
O=C(Cn1ncc2c3ccccc3n(Cc3ccccc3)c2c1=O)NCCCN1CCOCC1	Neuropilin-1 (Homo sapiens)	%	8.8
CC(C)(C)c1cc(=O)n2c(nc3ccccc32)[nH]1	Neuropilin-1 (Homo sapiens)	%	3.4
CN(C)S(=O)(=O)Oc1ccccc1C(=O)Nc1ccccc1Cl	Neuropilin-1 (Homo sapiens)	%	50.6
COc1ccc(-c2oc3ncnc(NCCCO)c3c2-c2ccc(OC)cc2)cc1	Neuropilin-1 (Homo sapiens)	%	4.1
Cc1ccc(C)c(N(CC(=O)NCc2ccco2)C(=O)CCC(=O)Nc2ccccn2)c1	Neuropilin-1 (Homo sapiens)	%	-4.5
CCN(CC)C(=O)N1CCN(C(=O)c2ccc(C)cn2)CC1	Neuropilin-1 (Homo sapiens)	%	0.3
CC(=O)NCC(=O)N(C)C(C(=O)Nc1ccc2c(c1)OCCO2)c1ccccc1 (centres undefined)	Neuropilin-1 (Homo sapiens)	%	-6
O=C(CSc1nnc2n1CCCN2)c1ccccc1	Neuropilin-1 (Homo sapiens)	%	-7.7
COC(=O)c1c(NC(=O)COC(=O)[C@@H](NS(=O)(=O)c2ccccc2)C(C)C)sc2c1CCC2	Neuropilin-1 (Homo sapiens)	%	-8.2
COCCCNC(=O)c1c(F)c(F)c(F)c(F)c1F	Neuropilin-1 (Homo sapiens)	%	8.4
Cc1noc(C)c1CSc1nc2cc(S(=O)(=O)N3CCOCC3)ccc2o1	Neuropilin-1 (Homo sapiens)	%	21.4
CCCCc1c(-c2ccc(Br)cc2)ncn1CCc1ccccc1OC	Neuropilin-1 (Homo sapiens)	%	12.7
COCCNC(=O)c1ccc2c(c1)ncn2-c1ccc(C)c(Cl)c1	Neuropilin-1 (Homo sapiens)	%	37.8
CCc1nc(SCC(=O)Nc2ccccc2OC)n[nH]1	Neuropilin-1 (Homo sapiens)	%	4.2
O=C(NC1CCCC1)C(NS(=O)(=O)c1ccc(Br)s1)c1ccccc1 (centres undefined)	Neuropilin-1 (Homo sapiens)	%	-3
Cc1nc2c(-c3ccc(F)cc3)c(C)nn2c(C)c1CCC(=O)N1CCN(c2ccccn2)CC1	Neuropilin-1 (Homo sapiens)	%	-14.2
O=C(CC1SC(=Nc2ccccc2F)N(CCN2CCOCC2)C1=O)Nc1ccc(F)cc1F (centres undefined)	Neuropilin-1 (Homo sapiens)	%	-6.8
O=S(=O)(c1ccccc1)c1nc(-c2ccccc2)oc1NCCCN1CCOCC1	Neuropilin-1 (Homo sapiens)	%	28.7
COC(C[C@@H](O)[C@H](C)[C@H](O)COCc1ccccc1)OC	Neuropilin-1 (Homo sapiens)	%	18.6
COCCOC(=O)C1=C(C)Nc2nc(C)nn2C1c1ccccc1 (centres undefined)	Neuropilin-1 (Homo sapiens)	%	36.8
O=C(c1c(F)cccc1Cl)N1CCN(S(=O)(=O)c2ccc3c(c2)OCCCO3)CC1	Neuropilin-1 (Homo sapiens)	%	2.8
CCN(Cc1ccncc1)C(=O)CCc1ccccc1	Neuropilin-1 (Homo sapiens)	%	9.5
CCCCC1=CC2=CC(=O)C(C)(OC(=O)CC)C(=O)C2=CN1CCCOC(C)C (centres undefined)	Neuropilin-1 (Homo sapiens)	%	29.4
COCCN(C(=O)COC(=O)Cc1cccc(OC)c1)c1c(N)n(Cc2ccccc2)c(=O)[nH]c1=O	Neuropilin-1 (Homo sapiens)	%	3.8
CN(C)CCCNC(=O)c1cc(C(=O)Cc2ccc(Cl)cc2)c[nH]1	Neuropilin-1 (Homo sapiens)	%	3.7
O=S(=O)(c1ccc(Cl)cc1)c1nc(-c2ccccc2F)oc1NCCN1CCOCC1	Neuropilin-1 (Homo sapiens)	%	5.8
CC1CCN(C(=O)/C(=C\c2ccccc2F)NC(=O)c2ccccc2)CC1	Neuropilin-1 (Homo sapiens)	%	9.8
O=C(NCCCc1ccccc1)C1CCC(=O)N(CCc2ccc(Cl)cc2)C1 (centres undefined)	Neuropilin-1 (Homo sapiens)	%	8.8
CCOC(=O)N1CCN(C(=O)c2nn(-c3ccc(C)cc3)c(=O)c3c2c2ccccc2n3C)CC1	Neuropilin-1 (Homo sapiens)	%	17.7
O=C(Cc1ccccc1Cl)N1CCN(c2ccccn2)CC1	Neuropilin-1 (Homo sapiens)	%	-9.5
CC1=C(C(N)=O)C(c2ccc(F)cc2)n2nc(CCCO)nc2N1 (centres undefined)	Neuropilin-1 (Homo sapiens)	%	6.8
CCC(C(=O)NC1CCCC1)N(C(=O)c1snc(C(N)=O)c1N)c1ccc2c(c1)OCCO2 (centres undefined)	Neuropilin-1 (Homo sapiens)	%	5.9
O=C(O)c1ccccc1N=N/C(=N/Nc1cc(S(=O)(=O)O)ccc1O)c1ccccc1	Neuropilin-1 (Homo sapiens)	%	41.5
O=C(Cn1cc(C(F)(F)F)ccc1=O)Nc1ccc2c(c1)OCCO2	Neuropilin-1 (Homo sapiens)	%	-9.1
CCCn1c2ccccc2c2cnn(CC(=O)NCCCN3CCCCC3CC)c(=O)c21 (centres undefined)	Neuropilin-1 (Homo sapiens)	%	29.4
Cc1ccc(F)c(S(=O)(=O)NC(=O)C2(C)CCN2C(=O)c2ccco2)c1 (centres undefined)	Neuropilin-1 (Homo sapiens)	%	24.2
CSc1ccccc1NC(=O)c1cc(Cl)sc1Cl	Neuropilin-1 (Homo sapiens)	%	-5.4
O=C(Cc1ccccc1Cl)N1CCOCC1	Neuropilin-1 (Homo sapiens)	%	45.9
CC1(C(=O)NS(=O)(=O)c2ccccc2Cl)CCN1C(=O)c1cccc(F)c1 (centres undefined)	Neuropilin-1 (Homo sapiens)	%	6.5
Cc1ccc(S(=O)(=O)C2C(=O)NC3(C)CC2c2ccccc2O3)cc1 (centres undefined)	Neuropilin-1 (Homo sapiens)	%	-9.3
Cc1cccc(NS(=O)(=O)c2cc(Cl)ccc2Cl)n1	Neuropilin-1 (Homo sapiens)	%	7.9
CCCCn1nnnc1C(c1ccccc1)N1CCN(c2ccccc2OC)CC1 (centres undefined)	Neuropilin-1 (Homo sapiens)	%	-6.7
COC(CNC(=O)c1ccc2c(c1)ncn2-c1cc(C)cc(C)c1)OC	Neuropilin-1 (Homo sapiens)	%	-2.4
COc1ccccc1C1C(C(N)=O)=C(C)Nc2nc(CCCO)nn21 (centres undefined)	Neuropilin-1 (Homo sapiens)	%	3.8
